What Blocking of ATPase activity on cell surface (293T/17-huCD39, CellTiter Glo): Top was measured for each of the following?
- tested target: T1, huCD39 on the cell surface (293T/17-huCD39 cells) (human, UniProt P49961 1-510)
- T1 sequence (looked up): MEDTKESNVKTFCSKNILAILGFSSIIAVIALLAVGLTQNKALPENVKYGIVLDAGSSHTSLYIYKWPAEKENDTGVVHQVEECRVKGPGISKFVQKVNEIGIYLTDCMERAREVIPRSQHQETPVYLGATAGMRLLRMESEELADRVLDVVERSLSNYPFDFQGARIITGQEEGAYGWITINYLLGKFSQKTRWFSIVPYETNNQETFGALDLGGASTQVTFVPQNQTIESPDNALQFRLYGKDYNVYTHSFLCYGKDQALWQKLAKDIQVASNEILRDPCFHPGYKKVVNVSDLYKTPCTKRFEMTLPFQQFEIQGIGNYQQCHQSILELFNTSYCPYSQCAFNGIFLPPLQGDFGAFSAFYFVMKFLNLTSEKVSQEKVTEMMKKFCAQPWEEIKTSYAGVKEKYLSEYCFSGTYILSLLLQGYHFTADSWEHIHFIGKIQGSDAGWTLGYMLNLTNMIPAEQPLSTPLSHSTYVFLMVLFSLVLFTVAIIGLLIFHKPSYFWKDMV
- assay: cell-based or functional assay

### Prompt Find the recorded Blocking of ATPase activity on cell surface (293T/17-huCD39, CellTiter Glo): Top belonging to 219 hIgG2 (antibody, V domains shown, Chimeric antibody: mouse Fv fused to the human IgG2 constant region; also called chimeric antibody 219) VH: EVQLVESGGGLVKPGGSLKLSCAASGFTFSDYGMHWVRQAPEKGLEWVAYISSGSSIRYYADTVKGRFTISRDNAKNTLFLQMTSLRSEDTAIYYCARDLYYDHVLDYWGQGTTLTVSS VL: DIQMTQSPSSLSASLGERVSLTCRASQEVSGYLNWLQQKPDGTIKRLIYAASTLDSGVPKRFSGSRSGSDYSLTISSLESEDFADYYCLQYASYPRTFGGGTKVEIKR and report it.
### Response 800000

### Prompt What do we get for 217 hIgG2 (antibody, V domains shown, Chimeric antibody: mouse Fv fused to the human IgG2 constant region) VH: EVQLVESGGGLVKPGGSLKLSCAASGFTFSDYGMHWVRQAPEKGLEWVAYISSGSSVIYYVDTVKGRFTISRDNAKNTLFLQMTSLRSEDTAMYYCARDLYYDHVLDSWGQGTTLTVSS VL: DIQMTQSPSSLSASLGERVSLTCRASQEIGGYLSWLQQKPDGTIKRLIYAASTLDSGVPKRFSGSRSGSDYSLTISSLESEDFADYYCLQYASYPRTFGGGTKLEIKR ?
### Response 1.19e+06

### Prompt What do we get for 216 hIgG2 (antibody, V domains shown, Chimeric antibody: mouse Fv fused to the human IgG2 constant region; also called chimeric antibody 216) VH: EVQLVESGGGLVKPGGSLKLPCAASGFTFSDYGMHWVRQAPEKGLEWVAYISSGSSIIYYADTVKGRFTISRDNAKNTLFLQMTSLRSEDTAMYYCARDLYYDHVLDYWGQGTTLTVAS VL: DIQMTQSPSSLSASLGERVSLTCRASQEISGYLIWLQQKPDGTIKRLIYAASTLDSGVPKRFSGNRSGSDYSLTISSLESEDFADYYCLQYASYPRTFGGGTKLEIKR ?
### Response 1.03e+06

### Prompt What do we get for 201 hIgG2 (antibody, V domains shown, Chimeric antibody: mouse Fv fused to the human IgG2 constant region, expressed in 293F cells; also called chimeric antibody 201) VH: EVQLVESGGGLVKPGGSLKLSCAASGFTFSDYGMHWVRQAPEKGLEWVAYISSGSSIMYYADTVKGRFTISRDNAKNTLFLQMASLRSEDTAMYYCARDLYYDHVLDYWGQGTTLTVSS VL: DIQMTQSPSSLSASLGERVSLTCRASQEIRGYLIWLQQKPGGTIKRLIYAASTLDSGVPKRFSGSRSGSDYSLTISSLESEDFADYYCLQYTSYPRTFGGGTKLEIKR ?
### Response 871000
